Listed here: items and their measured Variation.
Species: Cavia porcellus
methodSummary: Effect on the contractile force of spontaneously beating atria from Reserpine-treated guinea pigs as percentage variation from the control at concentration of 10E-6 M
Format: functional

- itemSmiles: "CCc1nc(N(C)C)ncc1C(=O)O"
  Variation: "0%"
- itemSmiles: "CCOC(=O)c1cnc(N(C)C)nc1"
  Variation: "1.19%"
- itemSmiles: "COCc1ccnc(N(C)C)n1"
  Variation: "0%"
- itemSmiles: "COC(=O)c1cnc(N(C)C)nc1Cc1ccccc1"
  Variation: "0%"
- itemSmiles: "CC(C)c1nc(N(C)C)ncc1C(=O)O"
  Variation: "1.79%"
- itemSmiles: "CN(C)c1ncc(C(=O)O)c(Cc2ccccc2)n1"
  Variation: "3.52%"
- itemSmiles: "CCc1ccnc(N(C)C)n1"
  Variation: "5.39%"
- itemSmiles: "COCc1nc(N(C)C)ncc1C(=O)O"
  Variation: "5.46%"
- itemSmiles: "CN(C)c1nccc(Cc2ccccc2)n1"
  Variation: "6.43%"
- itemSmiles: "CN(C)c1nccc(-c2ccccc2)n1"
  Variation: "0%"
- itemSmiles: "CN(C)c1nccc(C(F)(F)F)n1"
  Variation: "0%"
- itemSmiles: "CCOC(=O)c1cnc(N(C)C)nc1C(=O)OCC"
  Variation: "0%"
- itemSmiles: "Cc1[nH]c(=O)c(C#N)cc1-c1ccncc1"
  Variation: "0%"
- itemSmiles: "CCOC(=O)c1cnc(N(C)C)nc1C(C)C"
  Variation: "0%"
- itemSmiles: "CN(C)c1ncccn1"
  Variation: "0%"
- itemSmiles: "CCOC(=O)c1cnc(N(C)C)nc1CC"
  Variation: "0%"
- itemSmiles: "CN(C)c1nccc(C(C)(C)C)n1"
  Variation: "0%"
- itemSmiles: "Cc1ccnc(N(C)C)n1"
  Variation: "0%"
- itemSmiles: "CCOC(=O)c1cnc(N(C)C)nc1C"
  Variation: "2.79%"
- itemSmiles: "CCOC(=O)c1cnc(N(C)C)nc1C(C)(C)C"
  Variation: "0%"
- itemSmiles: "CCOC(=O)c1cnc(N(C)C)nc1-c1ccccc1"
  Variation: "1.73%"
- itemSmiles: "Nc1cc(-c2ccncc2)c[nH]c1=O"
  Variation: "0%"
- itemSmiles: "CC(C)c1ccnc(N(C)C)n1"
  Variation: "0%"
- itemSmiles: "Cc1nc(N(C)C)ncc1C(=O)O"
  Variation: "0%"
- itemSmiles: "CN(C)c1ncc(C(=O)O)c(C(F)(F)F)n1"
  Variation: "2.25%"
- itemSmiles: "CN(C)c1ncc(C(=O)O)c(-c2ccccc2)n1"
  Variation: "6.62%"
- itemSmiles: "COCc1nc(N(C)C)ncc1C(=O)OC"
  Variation: "3.04%"
- itemSmiles: "CCCc1ccnc(N(C)C)n1"
  Variation: "0%"
- itemSmiles: "CCCc1nc(N(C)C)ncc1C(=O)O"
  Variation: "5.38%"
- itemSmiles: "CCOC(=O)c1cnc(N(C)C)nc1C(F)(F)F"
  Variation: "7.15%"
